Target: T1, Sla1-3, P32790
T1 sequence (P32790 344-424, looked up): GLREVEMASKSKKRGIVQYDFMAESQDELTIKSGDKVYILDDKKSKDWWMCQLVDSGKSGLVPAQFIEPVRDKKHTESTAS
Experiment: SPOT array
Settings: median of control spots 5475
Attribute: SPOT intensity

Consider the following illustrative entries.
# binder, SPOT intensity
records = [
    ("TYNRTAFQIPGDQSI", 1),
    ("DLPLPDLPPEPPTEL", 0),
    ("NRLRKRLNLPSEISI", 141),
    ("NMLKKKPLKKPLKRF", 36),
    ("IKTRSVPKIPSIESV", 6),
    ("MPAPPPPPPPPPGAF", 2),
]

Recorded result, PHNPSPFFPPPDFND , SPOT intensity: 0

SPOT intensity reported for this binder PVLPPPRSPNRPTLS : 6

Form: binder = EAEEAAPQLPSRSSA ; SPOT intensity = 2

// TTAPALPSLPPPPLL : SPOT intensity value = 0

Lab note: measured SPOT intensity of HPRFVSPRIPSRIVK was 15

Consider FHLNPKRSAVLYDRP . Its measured SPOT intensity is 140

SPOT intensity in this record for AVPPPPPPPPLPESL : 3

For reference, reported SPOT intensity for DAPASKPSVPPRNYF stands at 12

The recorded SPOT intensity for RRRDFGAPANKRPRR is 30
